src = ChEMBL document CHEMBL3779882

# EXPERIMENTAL PROTOCOL: Chemical stability in PBS buffer assessed as compound remaining at 20 uM after 50 mins by HPLC analysis
# Format: physicochemical
# RECORDED CONDITIONS: read-out: Stability
READOUT LABEL: remaining at 50 min, 20 µM (%)

| COMPOUND | READOUT LABEL | RECORDED RESULT |
| --- | --- | --- |
| O=C(O)[C@@H]1CSC(c2ccccc2)N1 (mixture of isomers) | remaining at 50 min, 20 µM | 13.8 |
| O=C(O)[C@@H]1CSC(c2cccc(F)c2F)N1 (mixture of isomers) | remaining at 50 min, 20 µM | 50.1 |
| O=C(O)[C@@H]1CSC(c2cccc(Cl)c2Cl)N1 (mixture of isomers) | remaining at 50 min, 20 µM | 17.9 |
| COc1ccccc1C1N[C@H](C(=O)O)CS1 (mixture of isomers) | remaining at 50 min, 20 µM | 21 |

1. O=C(O)[C@@H]1CSC(c2ccccc2Br)N1 (mixture of isomers)
2. Cc1ccccc1C1N[C@H](C(=O)O)CS1 (mixture of isomers)
3. O=C(O)[C@@H]1CSC(c2c(F)cccc2F)N1 (mixture of isomers)
Query string: Sort low-to-high on remaining at 50 min, 20 µM, please. Give your ranking as a list of the labels in the requested order.
Result string: 2, 1, 3
(2: 8.9%, 1: 18.5%, 3: 46.9%)
